These entries and their values trace back to patent US20210340231A1.

target: T1, CTNI quality control recombinant protein (PK2-CTNI-1, 170120, produced by the applicant) (human, UniProt P19429 2-210, limits assumed); assay: AMC sensor kinetics, antibody captured, cTnI analyte
T1 construct: also called cardiac troponin I
T1 sequence (P19429 2-210 limits assumed): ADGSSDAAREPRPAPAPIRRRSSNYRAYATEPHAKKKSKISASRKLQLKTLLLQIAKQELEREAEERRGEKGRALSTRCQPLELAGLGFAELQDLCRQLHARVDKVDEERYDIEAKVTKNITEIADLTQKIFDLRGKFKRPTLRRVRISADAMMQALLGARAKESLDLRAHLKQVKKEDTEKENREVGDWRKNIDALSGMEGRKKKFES
Measured koff values are reported for all entries that follow.

BINDER	koff [s⁻¹]
Mutation 1-23 (antibody, V domains shown, built as for Mutation 1) VH: EVQLQQSGAELVKPGASVKLSCTASGFNIKDYYMHWMKQRTEQGLDWIGRIDPEDGETKYAPEFQGKATITADTSSNTAYLQLSTLTSEDTAVYYCARYYSSYIPFVYWGQGTLVTASA VL: DVVMTQTPLSLSVSLGDQASISCRSSQSILYSNRHTYLHWYLQKPGQSPKLLIFQISNRFSGVPDRFSGSGSGTDFTLKINRVEAEDLGVYFCSQSTHIPYTFGSGTKLEIKR	0.000673
Mutation 1-36 (antibody, V domains shown, built as for Mutation 1) VH: EVQLQQSGAELVKPGASVKLSCTASGFNLKDYYMHWMKQRTEQGLDWIGRIDPEDGETRYAPEFQGKATITADTSSNTAYLQLSTLTSEDTAVYYCARYYSSYLPFVYWGQGTLVTASA VL: DVVMTQTPLSLSVSLGDQASISCRSSQSIIYSNRHTYLHWYLQKPGQSPKLLIFQLSNRFSGVPDRFSGSGSGTDFTLKINRVEAEDLGVYFCSQSTHIPYTFGSGTKLEIKR	0.000452
